Origin of values: patent US20240082433A1

Test system: cervical cancer cells (KB3-1 cell line)
Procedure details: Cytotoxic effects in KB3-1 cells
Type: cell-based, human
Run conditions: KB3-1, after 24 hours
Parameter measured: IC50

[Q] Entry under review: F[P-](F)(F)(F)(F)F.OCC1OC(n2cc(-c3ccccn3)nn2)CC1O.c1ccc(-c2cccc[c]2[Ir][c]2ccccc2-c2ccccn2)nc1 [Ir(III)-PPY nucleoside] . Reported IC50?
[A] ~50 µM
